Hello, the source for this data is patent US10981932B2, in case you need it.

# Target: UniProtKB Q07820
# Protocol text: Protein-protein interaction assay MCL-1/Noxa BH3 peptide (MCL-1 assay), TR-FRET
# Format: binding
# Cond: MBP-MCL-1 / Noxa BH3-derived peptide, median
Counter-ions that a name gives are not always drawn.
Quantity kind: IC50 (nM)
Write the value in nM as a bare number.

Consider the following illustrative entries.
>>> value_observed("Cc1ccc2c(CCCOc3cccc4cc(F)ccc34)c(C(=O)O)n3c2c1-c1c(nn(CCN2CCOCC2)c1C)COCCCC3 (racemic) [Example 292]")
1.84
>>> value_observed("Cn1nc(CN2CCOCC2)c2c1COCC=CCn1c(C(=O)O)c(CCCOc3cccc4ccccc34)c3cccc-2c31 (single isomer, unassigned; enantiomer 1) [Example 133]")
18.6

Given the entry Cc1c2c(nn1CCN(C)C)COCCCCn1c(C(=O)O)c(CCCOc3cccc4ccccc34)c3cccc-2c31 (racemic) [Example 243, Trifluoroacetic Acid Salt] , report its measured IC50. 7.78

Given the entry Cn1nc(COc2ccc(N3CCOCC3)cc2)c2c1COCC=CCn1c(C(=O)O)c(CCCOc3cccc4ccccc34)c3cccc-2c31 (single isomer, unassigned; enantiomer 2) [Example 120] , report its measured IC50. 27.2

Given the entry Cn1nc(CN2CC3(COC3)C2)c2c1COCCCCn1c(C(=O)O)c(CCCOc3cccc4ccccc34)c3cccc-2c31 (single isomer, unassigned; enantiomer 2) [Example 345] , report its measured IC50. 26

---

# Target: MCL-1 (Homo sapiens, UniProt Q07820)
# Sequence (Q07820 whole entry): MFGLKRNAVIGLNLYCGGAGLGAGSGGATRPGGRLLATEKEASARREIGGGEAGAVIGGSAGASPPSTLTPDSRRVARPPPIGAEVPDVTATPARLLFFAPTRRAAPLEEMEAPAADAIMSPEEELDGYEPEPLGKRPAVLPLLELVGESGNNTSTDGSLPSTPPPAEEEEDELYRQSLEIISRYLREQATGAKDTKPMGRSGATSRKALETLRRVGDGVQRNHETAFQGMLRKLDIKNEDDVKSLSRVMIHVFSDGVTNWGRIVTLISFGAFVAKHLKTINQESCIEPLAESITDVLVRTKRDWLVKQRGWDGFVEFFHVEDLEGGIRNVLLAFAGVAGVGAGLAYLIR
# Protocol text: Protein-protein interaction assay MCL-1/Noxa BH3 peptide (MCL-1 assay), TR-FRET
# Format: binding
# Cond: MBP-MCL-1 / Noxa BH3-derived peptide, median
Labelling: IC50 reported below 70 nM becomes Y; at or above becomes N.

Solved cases below.
>>> answer_label("CC(C)c1c2c(nn1C)CN(C)CCCn1c(C(=O)O)c(CCCOc3cccc4ccccc34)c3cccc-2c31 (single isomer, unassigned; enantiomer 1) [Example 114]")
"Y"
>>> answer_label("Cn1nc(CN2CCCCC2=O)c2c1COCCCCn1c(C(=O)O)c(CCCOc3cccc4ccccc34)c3cccc-2c31 (racemic) [Example 325]")
"N"
>>> answer_label("CCn1nc2c(c1C1CC1)-c1cccc3c(CCCOc4cccc5ccccc45)c(C(=O)O)n(c13)CCCCOC2 (single isomer, unassigned; enantiomer 2) [Example 083]")
"N"
>>> answer_label("CCn1nc(C2CC2)c2c1COCCCCn1c(C(=O)O)c(CCCOc3cccc4ccccc34)c3cccc-2c31 (single isomer, unassigned; enantiomer 1) [Example 089]")
"Y"
>>> answer_label("Cc1nn(C)c2c1-c1cccc3c(CCCOc4cccc5ccccc45)c(C(=O)O)n(c13)CCCN(c1ccc(N3CCOCC3)cc1)C2 (single isomer, unassigned; enantiomer 1) [Example 1-99]")
"Y"
>>> answer_label("CN1CCCn2c(C(=O)O)c(CCCOc3cccc4ccccc34)c3cccc(c32)-c2c(COc3ccc(N4CCOCC4)cc3)nn(C)c2C1 (single isomer, unassigned) [Example 1-88]")
"Y"
>>> answer_label("Cn1nc(COc2ccc(N3CCN(S(C)(=O)=O)CC3)cc2)c2c1COCCCCn1c(C(=O)O)c(CCCOc3cccc4ccccc34)c3cccc-2c31 (single isomer, unassigned; enantiomer 2) [Example 1-10]")
"Y"
>>> answer_label("Cc1ccc2c(CCCOc3cccc4ccccc34)c(C(=O)O)n3c2c1-c1c(C)nn(C)c1COCCCC3 (single isomer, unassigned; enantiomer 1) [Example 028]")
"N"

API: query returns whether the compound falls strictly under 70 nM in IC50. Query: Cc1ccc2c(C(C)CCOc3cccc4c3CCCC4)c(C(=O)O)n3c2c1-c1c(nn(C)c1C)COCCCC3 (racemic) Y

API: query returns whether the compound falls strictly under 70 nM in IC50. Query: Cc1c2c(nn1C)COCCCCn1c(C(=O)O)c(CCCOc3cccc4cc(F)ccc34)c3cccc-2c31 (racemic) [Example 301] Y

API: query returns whether the compound falls strictly under 70 nM in IC50. Query: COCc1nn(C)c2c1-c1cccc3c(CCCOc4cccc5ccccc45)c(C(=O)O)n(c13)CCCCN(C)C2 (single isomer, unassigned; enantiomer 1) [Example 184] Y

---

Entries annotated with measured IC50
# Target: MCL-1 (Homo sapiens, UniProt Q07820)
# Protocol text: Protein-protein interaction assay MCL-1/Noxa BH3 peptide (MCL-1 assay), TR-FRET
# Type: binding
# Cond: MBP-MCL-1 / Noxa BH3-derived peptide, median
Write the value in nM as a bare number.

Consider the following illustrative entries.
>>> value_observed("CN1CCCCn2c(C(=O)O)c(CCCOc3cccc4ccccc34)c3cccc(c32)-c2c(/C=C/F)nn(C)c2C1 (single isomer, unassigned) [Example 226]")
3.02
>>> value_observed("Cc1nn(C)c2c1-c1cccc3c(CCCOc4cccc5cc(Cl)ccc45)c(C(=O)O)n(c13)CCCCOC2 (single isomer, unassigned; enantiomer 2) [Example 042]")
56.6
>>> value_observed("CCc1nn(CCN2CCOCC2)c2c1-c1cccc3c(CCCOc4cccc5ccccc45)c(C(=O)O)n(c13)CCCCOC2 (racemic) [Example 198]")
2.8

Given the entry Cn1nc(COc2ccccc2)c2c1COCC=CCn1c(C(=O)O)c(CCCOc3cccc4ccccc34)c3cccc-2c31 (single isomer, unassigned) [Example 1-78] , report its measured IC50. 905

Given the entry Cc1nn(C)c2c1-c1cccc3c(CCCOc4cccc5ccccc45)c(C(=O)O)n(c13)CCCCOC2 (racemic) [Example 1-33] , report its measured IC50. 9

Given the entry Cc1c2c(nn1C)COCCCCn1c(C(=O)O)c(CCCOc3cccc4cc(F)ccc34)c3cccc-2c31 (single isomer, unassigned; enantiomer 1) [Example 303] , report its measured IC50. 26.8

---

# Test system: SUDHL10
# Protocol text: Induction of caspase-3/7 activity (Caspase-Glo 3/7), SUDHL10
# Type: cell-based
# Cond: Homo sapiens, SU-DHL10, 3 h, caspase-3/7 induction, SUDHL10 cells, 3 h treatment; median
Quantity kind: EC50

Consider the following illustrative entries.
>>> value_observed("Cc1c2c(nn1C1CC1)COCCCCn1c(C(=O)O)c(CCCOc3cccc4ccccc34)c3cccc-2c31 (racemic) [Example 092]")
"20.2 µM"
>>> value_observed("Cc1cc(OCCCc2c(C(=O)O)n3c4c(cccc24)-c2c(COc4ccccc4)nn(C)c2CN(C)CCC3)cc(C)c1Cl (single isomer, unassigned) [Example 1-85]")
"> 33 µM"

Given the entry CCc1nn(C)c2c1-c1cccc3c(CCCOc4cccc5cc(Cl)ccc45)c(C(=O)O)n(c13)CCCCOC2 (racemic) [Example 304] , report its measured EC50. > 33 µM

Given the entry CN1CCCn2c(C(=O)O)c(CCCOc3cccc4ccccc34)c3cccc(c32)-c2c(CNCC(F)(F)F)nn(C)c2C1 (racemic) [Example 129] , report its measured EC50. > 33 µM

Given the entry Cc1nn(C)c2c1-c1cccc3c(CCCOc4cccc5ccccc45)c(C(=O)O)n(c13)CCN(c1ccccc1)C2 (racemic) [Example 1-101] , report its measured EC50. > 33 µM

Given the entry CCS(=O)(=O)N1CCN(c2ccc(N3CCCn4c(C(=O)O)c(CCCOc5cccc6ccccc56)c5cccc(c54)-c4c(C)nn(C)c4C3)cc2)CC1 (single isomer, unassigned; enantiomer 1) [Example 1-109] , report its measured EC50. 8.86 µM

---

# Tested on: SUDHL10
# Protocol text: Induction of caspase-3/7 activity (Caspase-Glo 3/7), SUDHL10
# Format: cell-based
# Cond: Homo sapiens, SU-DHL10, 3 h, caspase-3/7 induction, SUDHL10 cells, 3 h treatment; median
Quantity kind: EC50 (µM)
Write the value in µM as a bare number.

Consider the following illustrative entries.
>>> value_observed("CCc1c2c(nn1C)COCCCCn1c(C(=O)O)c(CCCOc3cccc4ccccc34)c3cccc-2c31 (racemic)")
7.48
>>> value_observed("Cc1c2c(nn1C)COCCCCn1c(C(=O)O)c(CCCOc3cccc4cc(Cl)ccc34)c3cccc-2c31 (racemic) [Example 295]")
19
>>> value_observed("CC(C)OCc1nn(C)c2c1-c1cccc3c(CCCOc4cccc5ccccc45)c(C(=O)O)n(c13)CCCCN(C)C2 (racemic) [Example 1-73]")
11.9
>>> value_observed("Cc1nn(C)c2c1-c1cccc3c(CCCOc4cccc5ccccc45)c(C(=O)O)n(c13)CCCCN2Cc1ccccc1")
22.4
>>> value_observed("CCc1c2c(nn1C)CN(C)CCCn1c(C(=O)O)c(CCCOc3cccc4ccccc34)c3ccc(C)c-2c31 (racemic)")
3.91
>>> value_observed("CC(C)c1c2c(nn1C)CN(C)CCCn1c(C(=O)O)c(CCCOc3cccc4ccccc34)c3cccc-2c31 (single isomer, unassigned; enantiomer 1)")
17.7
>>> value_observed("Cc1cc2c(OCCCc3c(C(=O)O)n4c5c(cccc35)-c3c(C)nn(C)c3COCCCC4)cccc2cc1F (single isomer, unassigned; enantiomer 1) [Example 050]")
18.8
>>> value_observed("Cc1nn(C)c2c1-c1cccc3c(CCCOc4cccc5ccccc45)c(C(=O)O)n(c13)CC=CCN2Cc1ccccc1 (racemic)")
29.1
>>> value_observed("COCc1c2c(nn1C)COCCCCn1c(C(=O)O)c(CCCOc3cccc4ccccc34)c3cccc-2c31 (racemic)")
12.8
>>> value_observed("CN1CCCn2c(C(=O)O)c(CCCOc3cccc4ccccc34)c3cccc(c32)-c2c(COc3ccc(-n4ccccc4=O)cc3)nn(C)c2C1 (single isomer, unassigned; enantiomer 1)")
32.9

Given the entry Cc1nn(C)c2c1-c1cccc3c(CCCOc4cccc5cc(F)ccc45)c(C(=O)O)n(c13)CCCOC2 (racemic) [Example 046] , report its measured EC50. 17

Given the entry CN1CCCn2c(C(=O)O)c(CCCOc3cccc4ccccc34)c3cccc(c32)-c2c(CCN3CCOCC3)nn(C)c2C1 (racemic) , report its measured EC50. 13.4

Given the entry Cn1nc(CN2CCOCC2)c2c1COCCCCn1c(C(=O)O)c(CCCOc3cccc4ccccc34)c3cccc-2c31 (single isomer, unassigned; enantiomer 2) [Example 137] , report its measured EC50. 22.1
